target: Homeodomain-interacting protein kinase 1 (Homo sapiens); assay: HIPK1 kinase inhibitors, dose response, biochemical, Z'-LYTE, FRET, protease-coupled, direct format (AID 1671292); details: Z'-LYTE FRET kinase assay, recombinant HIPK1
PROPERTY_MEASURED: IC50

Name the reported IC50 value associated with the molecule Brc1c(Br)c(Br)c2n[nH]nc2c1Br
4.47 µM
